# Tested on: MCF7 breast
# ASSAY_PROCEDURE: NCI-60 one-dose screen, 48 h
# CONDITION_INFO: 10 µM
# Protocol: Growth inhibition of the MCF7 human tumor cell line is measured as a screen for anti-cancer activity. Cells are grown in 96 well plates and exposed to the test compound for 48 hours. Compounds are tested at a single concentration, which is 10^-5 M for most compounds. The reported endpoint is percent growth (GI% or GIPRCNT), where numbers from 0 - 100% represent growth inhibition, and numbers from -100% - 0 represent cell death. For example, a value of 40 represents 60% growth inhibition. […]
This is part of a sample that, as a whole, favours compounds with a hit. Of some 83,000 tested, about 20% had one in any assay. Activity calls are given as the source filed them. The calls were made as follows: active = growth percent below 10; inactive = the rest.
Give one outcome, nothing more. List: y = active, n = inactive

Past entries and their recorded results:
- MOLECULE: "C[C@]12CC[C@@H]3c4ccc(O)cc4CC[C@H]3[C@@H]1CC[C@@H]2NS(=O)(=O)c1ccc(C(F)(F)F)cc1"
  SYSTEM_TESTED: "MCF7 breast"
  CATEGORY_LABEL: "y"
- MOLECULE: "O=C(CNc1nnc(-c2cccnc2SCc2ccccc2)s1)Nc1nc(Cl)cc(Cl)n1"
  SYSTEM_TESTED: "MCF7 breast"
  CATEGORY_LABEL: "n"
- MOLECULE: "O=C(CSc1nnc(-c2ccc(Cl)cc2)o1)Nc1ccc(C(=O)/C=C/c2ccc(Cl)cc2)cc1"
  SYSTEM_TESTED: "MCF7 breast"
  CATEGORY_LABEL: "n"
- MOLECULE: "N#CC1=C(N)Oc2cc(N)ccc2C1c1cccnc1 (configuration not stated)"
  SYSTEM_TESTED: "MCF7 breast"
  CATEGORY_LABEL: "n"

--- query ---
Tell me the recorded outcome of this test for O=C1c2ccccc2C(=O)c2c1ccc1c(=O)n(-c3ccccc3C(F)(F)F)nnc21 . y

====

# Tested on: SF-539 CNS
# ASSAY_PROCEDURE: NCI-60 one-dose screen, 48 h (100 = growth as untreated, 0 = no growth, -100 = all killed)
# CONDITION_INFO: 10 µM
This is part of a sample that, as a whole, favours compounds with a hit. Of some 83,000 tested, about 20% had one in any assay.
MEASURED_ENDPOINT: growth (%)
One number for each entry, in %.

Solved entries (count: 8):
- COMPOUND: "COc1ccc(C(=O)N2C=Cc3ccccc3C2C#N)cc1 (stereo not given)"
  growth / %: 96.8
- COMPOUND: "Cc1ccc(-n2c(C)nn3c(=O)c4c5c(sc4nc23)CN(C)CC5)cc1"
  growth / %: 101
- COMPOUND: "CN(C)c1ccc(/C=N/NC(=O)c2ccccc2Nc2cccc(C(F)(F)F)c2)cc1"
  growth / %: 105
- COMPOUND: "CCN(CC)CCN1c2nc3ccccc3cc2Sc2cc3ccccc3nc21"
  growth / %: -100
- COMPOUND: "COc1cc2cc(Oc3ccc(NC(=O)Nc4ccc(C(F)(F)F)cc4)cc3)c(C)nc2cc1OC"
  growth / %: 96.9
- COMPOUND: "COc1ccc2cc(-c3nc4ccccc4s3)c(Cl)nc2c1OC"
  growth / %: 99
- COMPOUND: "O=c1[nH]c(=O)n(C2C[C@H](O)[C@@H](CO)O2)cc1C(F)(F)F (stereo not given in full)"
  growth / %: 112
- COMPOUND: "COc1ccc(-c2nn(-c3cccc(Cl)c3)cc2/C=C2\\NC(=S)N(c3ccc(Cl)cc3)C2=O)cc1"
  growth / %: 75.3

Batch request: growth for each of the following compounds.
1. CCn1c(CSc2nc3ccccc3c(=O)n2CCc2ccccc2)n[nH]c1=S
2. COc1cc2c(cc1NC(=O)C(Cl)Cl)-c1ccc(NC(=O)C(Cl)Cl)cc1C2

[99.8, -14.9]
